The entries below come with measured cAMP Rel EC50, nM (1% HSA) values attached.
# TARGET: human glucagon receptor (human) (UniProt P47871)
# Sequence (P47871 26-477): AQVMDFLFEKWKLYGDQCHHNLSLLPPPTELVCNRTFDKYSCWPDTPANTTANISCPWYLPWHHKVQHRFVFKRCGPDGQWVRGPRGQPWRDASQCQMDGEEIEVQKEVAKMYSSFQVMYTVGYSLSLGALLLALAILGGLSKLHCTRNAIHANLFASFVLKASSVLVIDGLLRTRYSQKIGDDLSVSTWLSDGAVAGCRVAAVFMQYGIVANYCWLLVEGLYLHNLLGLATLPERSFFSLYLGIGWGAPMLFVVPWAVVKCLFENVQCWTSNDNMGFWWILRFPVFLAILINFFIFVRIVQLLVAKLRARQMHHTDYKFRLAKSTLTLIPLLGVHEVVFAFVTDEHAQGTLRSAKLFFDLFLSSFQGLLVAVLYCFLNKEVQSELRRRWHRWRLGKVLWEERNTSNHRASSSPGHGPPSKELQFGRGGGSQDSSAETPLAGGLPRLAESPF
# METHOD: cell-based or functional assay

{"BINDER": "YXQGTFTSDFSQXLDXKAQXAFIEYLLEAGPSSGAPPPSGSEEE (Aib, αMeL, Orn, D-Ala; C18 diacid-(γ-Glu)2 acyl; amide; synthetic construct; SITE 2: note = 2-Aminoisobutyric Acid; SITE 13: note = alpha-methyl-leucine; SITE 16: note = L-ornithine; SITE 17: note = Lysine is chemically modified through conjugation of the epsilon-amino group of the Lysine side chain with (gamma-Glu)2-CO-(CH2)16-CO2H; SITE 20: note = 2-Am) [Example 1039]", "cAMP Rel EC50, nM (1% HSA)": "2020 nM"}
{"BINDER": "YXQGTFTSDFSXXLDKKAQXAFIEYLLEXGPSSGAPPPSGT (synthetic construct; SITE 2: note = 2-Aminoisobutyric Acid; SITE 12: note = L-ornithine; SITE 13: note = alpha-methyl-leucine; SITE 17: note = Lysine is chemically modified through conjugation of the epsilon-amino group of the Lysine side chain with (2-[2-(2-Amino-ethoxy)-ethoxy]-acetyl)2-(gamma-Glu)) [Example 165]", "cAMP Rel EC50, nM (1% HSA)": "1250 nM"}
{"BINDER": "YXQGTFTSDFSQXLDXKAQXAFIEXLLEAGPSSGAPPPSGSEEE (Aib, αMeL, Orn, Me4Pal; acylated K; C-terminal amide; synthetic construct; SITE 2: note = 2-Aminoisobutyric Acid; SITE 13: note = alpha-methyl-leucine; SITE 16: note = L-ornithine; SITE 17: note = Lysine is chemically modified through conjugation of the epsilon-amino group of the Lysine side chain with (gamma-Glu)2-CO-(CH2)16-CO2H; SITE 20: note = 2-Am) [Example 1040]", "cAMP Rel EC50, nM (1% HSA)": "2020 nM"}
{"BINDER": "YXQGTFTSDXSXXLDKKAQXAFIEYLIAGGESSGAPPPSGSEE (Aib, 4Pal, Orn, αMeL, Me4Pal; acylated Lys; C-terminal amide; synthetic construct; SITE 2: note = 2-Aminoisobutyric Acid; SITE 10: note = 3-(4-Pyridyl)-L-alanine; SITE 12: note = L-ornithine; SITE 13: note = alpha-methyl-leucine; SITE 17: note = Lysine is chemically modified through conjugation of the epsilon-amino group of the Lysine side chain with (gamma-Gl)) [Example 964]", "cAMP Rel EC50, nM (1% HSA)": "324 nM"}
{"BINDER": "YXQGTFTSDXSQXLDXKAQXAFIEXLIEGGPSSGEPPPSGSEE (non-natural residues; lysine acylated with C18 diacid; C-terminal amide; synthetic construct; SITE 2: note = 2-Aminoisobutyric Acid; SITE 10: note = 3-(4-Pyridyl)-L-alanine; SITE 13: note = alpha-methyl-leucine; SITE 16: note = L-ornithine; SITE 17: note = Lysine is chemically modified through conjugation of the epsilon-amino group of the Lysine side chain with (gamma-Gl)) [Example 1028]", "cAMP Rel EC50, nM (1% HSA)": "3910 nM"}

These measurements were taken from patent US20240270821A1.
